- assay-protocol: chemical genetic growth profiling, strain panel (AID 1159580);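 also: tested at 20 µM; growth read once vehicle control cultures reached saturation at 30 °C; 1 = growth at the plate median or of vehicle wells; lower values mean less growth of the strain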
- applied-conditions: S. cerevisiae deletion strains, growth OD, locus YOR080W, strain dia2, hits give low values
In all, about 5,500 compounds went through this assay and about 2,000 (36%) were called active. Not shown: some 18% with an inconclusive outcome. This is one part of the list.
Recorded normalized growth by entry
Note: the reply should be a number with no unit written.

CN(C)CCN(Cc1ccccc1)c1ccccn1: 1.02
N=c1ccn2c(n1)OC1C(O)C(CO)OC12 (centres undefined): 0.996
Oc1cc(O)c2c(c1)O[C@H](c1ccc(O)c(O)c1)[C@H](O)C2: 1.01
COc1cc([C@@H]2c3cc4c(cc3C(OC3O[C@@H]5COC(C)O[C@H]5[C@H](O)[C@H]3O)C3COC(=O)[C@@H]32)OCO4)cc(OC)c1O (some centres undefined): 1.02
COc1ccc(CN(CCN(C)C)c2ccccn2)cc1: 1.03
COc1cc([C@@H]2c3cc4c(cc3[C@@H](O)C3COC(=O)C32)OCO4)cc(OC)c1O (some centres undefined): 1
CC[C@]1(O)CC2CN(CCc3c([nH]c4ccccc34)[C@@](C(=O)OC)(c3cc4c(cc3OC)N(C)[C@H]3[C@@](O)(C(=O)OC)[C@H](OC(C)=O)[C@]5(CC)C=CCN6CC[C@]43[C@@H]65)C2)C1 (some centres undefined): 0.96
O=C(O[C@@H]1Cc2c(O)cc(O)cc2O[C@@H]1c1ccc(O)c(O)c1)c1cc(O)c(O)c(O)c1: 0.983

Please examine the following record next.
Q: GET /values?readout=normalized growth&item= "COc1ccc(-c2coc3cc(O)ccc3c2=O)cc1"
A: 0.993
